protocolDetails: Cell viability assay by neutral red dye absorption in the pigmentation assay
Format: cell-based
conditionParameters: mouse, b16-f1 cells, 0.04%, n=4, read-out: Neutral Red Cell Viability % Control
propertyName: viability at 72 h

Quick one: viability at 72 h of CCCCCCCCCCC/C=C\CCCCC(=O)O [Petroselinic Acid, Petroselinic acid] ? 69.9%

====

protocolDetails: Cell viability assay by neutral red dye absorption in the pigmentation assay
Format: cell-based
conditionParameters: mouse, b16-f1 cells, 0.1%, n=4, read-out: Neutral Red Cell Viability % Control
propertyName: viability at 72 h (%)
Answer format: numeric, % implied, no suffix.

Quick one: viability at 72 h of "CCCCCCCCCCC/C=C\CCCCC(=O)O" ? 1
